Ref: paper PMC9405847

Kindly supply the reported melting point values for the records listed here.

Query :: Consider the molecule COc1ccccc1N1CCN(Cc2ccc(NS(=O)(=O)c3ccc4c(c3)OCO4)cc2)CC1 and give its measured melting point.
Result :: 149 to 151 °C

Query :: Consider the molecule COc1ccccc1N1CCN(Cc2ccc(NS(=O)(=O)c3cc4c(cc3C)OCO4)cc2)CC1 and give its measured melting point.
Result :: 183 to 185 °C

Query :: Consider the molecule O=S(=O)(Nc1ccc(CN2CCN(c3cccc(Cl)c3Cl)CC2)cc1)c1ccc2c(c1)OCO2 and give its measured melting point.
Result :: 163 to 166 °C

Query :: Consider the molecule Cc1cc2c(cc1S(=O)(=O)Nc1ccc(CN3CCN(c4ccccc4)CC3)cc1)OCO2 and give its measured melting point.
Result :: 154 to 156 °C

Query :: Consider the molecule Cc1cc2c(cc1S(=O)(=O)Nc1ccc(CN3CCN(c4cccc(Cl)c4Cl)CC3)cc1)OCO2 and give its measured melting point.
Result :: 192 to 194 °C

Query :: Consider the molecule O=S(=O)(Nc1ccc(CN2CCN(c3ccccc3)CC2)cc1)c1ccc2c(c1)OCO2 and give its measured melting point.
Result :: 178 to 180 °C

* * *

Kindly supply the reported IC50 values for the records listed here.
- TEST SYSTEM: human D3 dopaminergic receptor (D3R) (Homo sapiens, UniProt P35462)
- Sequence (P35462 whole entry): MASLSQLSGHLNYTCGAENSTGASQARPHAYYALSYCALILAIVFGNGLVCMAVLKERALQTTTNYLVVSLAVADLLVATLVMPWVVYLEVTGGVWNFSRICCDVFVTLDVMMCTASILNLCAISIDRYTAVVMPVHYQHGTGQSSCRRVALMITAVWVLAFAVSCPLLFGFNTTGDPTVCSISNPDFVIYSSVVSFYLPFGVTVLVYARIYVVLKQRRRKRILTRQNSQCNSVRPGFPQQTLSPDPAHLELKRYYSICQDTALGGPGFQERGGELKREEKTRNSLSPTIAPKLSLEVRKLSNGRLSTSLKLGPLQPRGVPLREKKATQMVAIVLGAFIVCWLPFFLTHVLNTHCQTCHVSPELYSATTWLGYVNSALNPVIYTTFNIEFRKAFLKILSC
- TEST DESCRIPTION: Competition binding of [3H]-spiperone and GTP-shift (functional binding) in membranes of recombinant Chem-1 cells
- TEST PARAMETERS: IC50 (NaCl + GTP), D3R, medium II: 154 mM NaCl and 1 mM GTP; [3H]-spiperone 0.5 nM; 95% confidence interval in parentheses
Quick reminder: number only, in nM, skip the unit.

Query :: Consider the molecule COc1ccccc1N1CCN(Cc2ccc(NS(=O)(=O)c3ccc4c(c3)OCO4)cc2)CC1 [Compound 5e] and give its measured IC50.
Result :: 200

Query :: Consider the molecule O=S(=O)(Nc1ccc(CN2CCN(c3cccc(Cl)c3Cl)CC2)cc1)c1ccc2c(c1)OCO2 [Compound 5f] and give its measured IC50.
Result :: 200

Query :: Consider the molecule O=S(=O)(Nc1ccc(CN2CCN(c3ccccc3)CC2)cc1)c1ccc2c(c1)OCO2 [Compound 5d] and give its measured IC50.
Result :: 990

Query :: Consider the molecule Cc1cc2c(cc1S(=O)(=O)Nc1ccc(CN3CCN(c4ccccc4)CC3)cc1)OCO2 [Compound 5a] and give its measured IC50.
Result :: 1200

Query :: Consider the molecule Cc1cc2c(cc1S(=O)(=O)Nc1ccc(CN3CCN(c4cccc(Cl)c4Cl)CC3)cc1)OCO2 [Compound 5c] and give its measured IC50.
Result :: 780

Query :: Consider the molecule COc1ccccc1N1CCN(Cc2ccc(NS(=O)(=O)c3cc4c(cc3C)OCO4)cc2)CC1 [Compound 5b] and give its measured IC50.
Result :: 290

* * *

- TEST SYSTEM: human D3 dopaminergic receptor (D3R) (Homo sapiens)
- TEST DESCRIPTION: Competition binding of [3H]-spiperone and GTP-shift (functional binding) in membranes of recombinant Chem-1 cells
- TEST PARAMETERS: IC50 in NaCl + GTP (II) divided by IC50 in MgCl2 + CaCl2 (I)
Kindly supply the reported Na+-Shift (II/I) D3R values for the records listed here.
Answer with the value's number alone.

Query :: Consider the compound Cc1cc2c(cc1S(=O)(=O)Nc1ccc(CN3CCN(c4ccccc4)CC3)cc1)OCO2 [Compound 5a] and give its measured Na+-Shift (II/I) D3R.
Result :: 1.1

Query :: Consider the compound O=S(=O)(Nc1ccc(CN2CCN(c3cccc(Cl)c3Cl)CC2)cc1)c1ccc2c(c1)OCO2 [Compound 5f] and give its measured Na+-Shift (II/I) D3R.
Result :: 1.8

Query :: Consider the compound O=S(=O)(Nc1ccc(CN2CCN(c3ccccc3)CC2)cc1)c1ccc2c(c1)OCO2 [Compound 5d] and give its measured Na+-Shift (II/I) D3R.
Result :: 2.4

Query :: Consider the compound Cc1cc2c(cc1S(=O)(=O)Nc1ccc(CN3CCN(c4cccc(Cl)c4Cl)CC3)cc1)OCO2 [Compound 5c] and give its measured Na+-Shift (II/I) D3R.
Result :: 1

Query :: Consider the compound COc1ccccc1N1CCN(Cc2ccc(NS(=O)(=O)c3ccc4c(c3)OCO4)cc2)CC1 [Compound 5e] and give its measured Na+-Shift (II/I) D3R.
Result :: 0.9

Query :: Consider the compound COc1ccccc1N1CCN(Cc2ccc(NS(=O)(=O)c3cc4c(cc3C)OCO4)cc2)CC1 [Compound 5b] and give its measured Na+-Shift (II/I) D3R.
Result :: 0.4
